Biological target: T1, human CTLA-4-Fc (Chimerigen) (human, UniProt P16410 36-161; P01857 99-330 = IgG part, limits assumed)
T1 construct: extracellular domain;domain: Fc portion; Bought protein; also called hCTLA-4-Fc; huCTLA-4-Ig
T1 sequence (P16410 other isoform, or with tags, fused parts or gaps mutant limits assumed): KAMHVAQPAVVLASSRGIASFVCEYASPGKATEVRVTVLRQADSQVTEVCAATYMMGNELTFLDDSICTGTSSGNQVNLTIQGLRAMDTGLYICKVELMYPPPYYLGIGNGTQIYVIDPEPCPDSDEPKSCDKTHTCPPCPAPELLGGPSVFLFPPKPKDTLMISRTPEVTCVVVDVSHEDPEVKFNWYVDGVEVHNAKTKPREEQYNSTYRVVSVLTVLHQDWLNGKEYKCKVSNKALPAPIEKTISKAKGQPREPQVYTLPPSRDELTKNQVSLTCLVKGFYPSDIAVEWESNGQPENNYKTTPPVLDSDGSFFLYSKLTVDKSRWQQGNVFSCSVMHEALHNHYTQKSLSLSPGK
Experiment: SPR; KD listed beside Tm
MEASURED PARAMETER: pKd
In simple prose, pKd is minus the logarithm base ten of a concentration in moles per litre.

Entry hNGAL mutein S140.3-P07 (designed binder, tagged entry not tied to the name; not shown: N-terminal T7 detection tag from vector phNGAL37; C-terminal Strep-tag II from vector phNGAL37) QDSTSDLIPAPPLSKVPLQQNFQDNQFHGKWYVVGLAGNRILRDDQHPMNMYATIYELKEDKSYNVTSVIFPHKKCEYTIATFVPGSQPGEFTLGNIKSYGDKTSYLVRVVSTDYNQYAVVFFKLAEDDAEFFAITIYGRTKELASELKENFIRFSKSLGLPENHIVFPVPIDQCIDG — recorded pKd = 7.54

Entry hNGAL mutein S140.2-P24 (designed binder, tagged entry not tied to the name; not shown: N-terminal T7 detection tag from vector phNGAL37; C-terminal Strep-tag II from vector phNGAL37) QDSTSDLIPAPPLSKVPLQQNFQDNQFHGKWYVVGLAGNRILRDDQHPMDMYATIYELKEDKSYNVTSVISSHKKCEYTIATFVPGSQPGEFTLGNIKSYGDKTSYLVRVVSTDYSQYAVVFFKLAEDNAEFFAITIYGRTKELASELKENFIRFSKSLGLPENHIVFPVPIDQCIDG — recorded pKd = 7.70

Entry hNGAL mutein S140.4-O10 (designed binder, also called Onc I-002) QDSTSDLIPAPPLSKVPLQQNFQDNQFHGKWYVVGLAGNRILRDDQHPMNMYATIYELKEDKSYNVTSVISSHKKCEYTIATFVPGSQPGEFTLGNIKSYGDKTSYLVRVVSTDYNQYAVVFFKLAEDNAEFFAITIYGRTKELASELKENFIRFSKSLGLPENHIVFPVPIDQCIDG — recorded pKd = 8.08
